system: CAKI-1 renal; assay: NCI tumour cell line growth inhibition, 48 h
measure: GI50

Recorded GI50, per entry:
compound: CC1=CC(C)=NN=C(N)N1S(=O)(=O)c1cc(C)c(Cl)cc1SCc1ccccc1
measure: GI50
result: > 100 µM
//
compound: O=C(Nc1ccc(Cc2ccccc2)cc1)Nc1nn(C(=O)Nc2ccc(Cc3ccccc3)cc2)c2ccccc12
measure: GI50
result: > 100 µM
//
compound: Cn1c(=O)c(Oc2ccc(F)cc2F)cc2cnc(NC(C)(C)CO)nc21
measure: GI50
result: > 25 µM
//
compound: CCN1CCC(Nc2ccnc3cc(Cl)ccc23)CC1
measure: GI50
result: 21.5 µM
//
compound: COc1cc(C2CC(c3cccc(Nc4ccnc5cc(Cl)ccc45)c3)=NN2c2ccc(Cl)cc2)cc(OC)c1OC (stereo not given)
measure: GI50
result: 0.693 µM
//
compound: CN(C)c1ccc(/C=C/c2ccc(S(N)(=O)=O)cc2)cc1
measure: GI50
result: 50.3 µM
//
compound: CCCCOC(=O)c1ccc(N)cc1
measure: GI50
result: 11.4 µM
//
compound: COc1cc2c(c(OC)c1OC)-c1ccc(O)cc1[C@@H](NC(C)=O)CC2
measure: GI50
result: 0.183 µM

Go through the items and report each one's GI50.
1. CCCCCCCCCCCCCCCCCc1nccn1CCOCCO
2. C=C(CN1CCN(c2ccc(C(F)(F)F)cc2)CC1)c1ccc(C(=O)Nc2ccccc2N)cc1

## Output
1: 6.3 µg/mL; 2: 6.08 µM

This collection of values is drawn from PubChem BioAssay (NCI).
